# System: Plasmodium berghei
# experiment_notes: Screen against P. berghei liver stage (PbLuc), transformed with Luciferase, at 10uM
# Format: functional, HepG2
# test_parameters: tested at 10 uM
Among all 69,000 compounds or so, about 8,600 (12%) showed an effect of 50% or more. Only a selection was taken, and strong results are over-represented in it overall.
assay_readout: INHIBITION (%)
Numbers only, in %.

Examples from the recorded data:
| compound | measurement_units | INHIBITION |
| --- | --- | --- |
| CC(C)N1CCCn2nc(C(=O)NCCc3ccccn3)cc2C1 | % | 57.2 |
| COc1ccc2c(c1)OCC(Cc1cncc(N)c1)C2 (configuration not stated) | % | 61.1 |
| Cc1cncc(Oc2ccc(CO)cc2)n1 | % | 44.3 |
| CCS(=O)(=O)N1CCc2nc(C3CCN(C(=O)C4CC4)C3)nc(O)c2C1 (configuration not stated) | % | 30.4 |
| CNCc1ccc(Oc2cncc(C)n2)cc1 | % | -1.84 |

Look up INHIBITION for the entries below, preserving their order.
1. O=C(NCc1ccccn1)c1cc2n(n1)CCNC2
2. Cc1nc(CN2CCC3(CCCN(Cc4cccnc4)C3)C2=O)cs1 (configuration not stated)

### Response
1: -54.5; 2: 36.2

----------
# Tested on: Plasmodium berghei
# experiment_notes: Screen against P. berghei liver stage (PbLuc), transformed with Luciferase, at 10uM
# Assay type: functional, HepG2
# test_parameters: tested at 10 uM
In all, about 69,000 compounds went through this assay and about 8,600 (12%) showed an effect of 50% or more. The sample holds strong results, similar compounds and a random draw of the others, so the mix is not that of the screen.
assay_readout: INHIBITION (%)
One number for each entry, in %.

Consider the following illustrative entries.
| compound | recorded_result |
| --- | --- |
| Cc1ccc(C(=O)N2CCN(Cc3ccsc3)CC2)n1C | 9.32 |
| Cc1ccc(C(=O)N2CCN(Cc3cccs3)CC2)n1C | 19.4 |
| Cc1nc(CN2C(=O)C[C@@H]3[C@@H]2CCN3Cc2cnn(C)c2)cs1 | -8.51 |
| CNC(=O)[C@@H]1CN(C(=O)C2CCC2)C[C@H]1c1ccnc(N2CCCC2)n1 | -33.3 |

Look at each compound and report its INHIBITION.
1. Cc1ccc(C(=O)N2CCN(Cc3ccc(C#N)cc3)CC2)n1C
2. Cc1oc(-c2ccco2)nc1CN1CCCC(Cn2cncn2)C1 (stereo unspecified)
3. Cc1noc(C)c1-c1ccc(C2CCCN2CCC(N)=O)nc1 (stereo unspecified)

### Response
[54.4, -97.8, 30.4]

----------
# System: Plasmodium berghei
# experiment_notes: Screen against P. berghei liver stage (PbLuc), transformed with Luciferase, at 10uM
# Type: functional, HepG2
# test_parameters: tested at 10 uM
The whole screen tested about 69,000 compounds, of which about 8,600 (12%) showed an effect of 50% or more. This is one part of a sample in which strong results are shown more often than they occur.
Assign a class from recorded INHIBITION; defined classes: lo: < -10%; mid: ≥ -10% and < 10%; hi: ≥ 10%

# example entries with known answers
| compound | label_value |
| --- | --- |
| O=C(CN1CCC(c2ccnn2CCO)CC1)NCc1cccs1 | hi |
| Cn1nccc1C1CCN(CC(=O)NCC2CC2)CC1 | hi |
| O=C(CN1CCC(c2ccnn2CCO)CC1)NC1CCCC1 | lo |
| O=S(=O)(CCNC1CCc2ncnn2C1)c1ccc(Cl)cc1 (configuration not stated) | hi |
| N#CC1(NC(=O)CN2CCC(c3ccnn3CCO)CC2)CCCC1 | hi |

### Prompt Hi, small favor: classify CCOC(=O)c1c(NC(=O)CN2CCN(C(C)=O)CC2)sc2c1CCC2 by its INHIBITION when you get a moment.
### Response hi

### Prompt Record COc1ccc2c(c1)NC(C1CCN(C(=O)C3CC3)CC1)NS2(=O)=O (configuration not stated) — which class?
### Response lo

### Prompt For this compound, which bin applies? CCS(=O)(=O)CCN1CCN(C2CCC(C(C)C)CC2)CC1 (configuration not stated)
### Response hi

### Prompt Hello team, could you let me know which band the following compound falls into: NC(=O)CN(Cc1ccc(Br)cc1)C(=O)c1ccncc1
### Response mid

----------
# System: Plasmodium berghei
# experiment_notes: Screen against P. berghei liver stage (PbLuc), transformed with Luciferase, at 10uM
# Type: functional, HepG2
# test_parameters: tested at 10 uM
The whole screen tested about 69,000 compounds, of which about 8,600 (12%) showed an effect of 50% or more. The entries come from a sample that favours strong results as a whole.
Task for the reader: assign each of the following molecules its reported INHIBITION.
One number for each entry, in %.

The cases that follow already have their INHIBITION on record.
| molecule | system_under_test | INHIBITION, % |
| --- | --- | --- |
| O=C(NCCc1ccco1)Nc1cc(C(F)(F)F)c[nH]c1=O | Plasmodium berghei | 4.8 |
| CN(CC(=O)N(CCC#N)c1ccccc1)C1CCc2ccccc21 (configuration not stated) | Plasmodium berghei | 28.9 |
| CC(=O)N(C)c1nc(Cn2nnnc2C(C)(C)C)cs1 | Plasmodium berghei | 24.2 |
| COc1cccc(CN2CCCCC2Cn2nc(C)nc2C)c1 (configuration not stated) | Plasmodium berghei | -59.4 |

Dear colleague, could you please provide INHIBITION for the molecules listed below?
1. Cn1nc(C2CCN(C(=O)CN3CCCCC3)CC2)c2cccnc21
2. Cc1c(C(=O)NCCC(C)C)nnn1-c1cccc2c1CCN(C)C2
3. O=S(=O)(c1cccs1)N1CCCC2(COCCN(c3cccnc3)C2)C1 (configuration not stated)
4. Cc1ccc(N2CCCC(c3[nH]ncc3Cc3ccccc3)C2)nn1 (configuration not stated)
5. CS(=O)(=O)c1cn[nH]c1C1CCCN(C(=O)CN2CCOCC2)C1 (configuration not stated)
6. CN(CCNC(=O)c1cccnc1)S(C)(=O)=O
7. O=C(c1ccncc1)N1CCCC2(COCCN(c3ccccc3)C2)C1 (configuration not stated)
8. CS(=O)(=O)NC1CCCN(C(=O)c2cccnc2)C1 (configuration not stated)

### Response
[23.2, 36.3, 82.3, 47.2, 20.8, 30.9, -6.82, -16]

List the reported INHIBITION of each molecule below.
1. CCOc1ncnc2c1CCN(S(=O)(=O)c1ccccc1)CC2
2. CCS(=O)(=O)N1CCCC2(COCCN(c3cnccn3)C2)C1 (configuration not stated)
3. CCC[C@H]1CN(c2nc(CO)cs2)C[C@@H]1NC(=O)C1(COC)CC1
4. CC(C)CNC(=O)[C@H]1CCS(=O)(=O)[C@@H]2CN(Cc3cccc(Cl)c3)C[C@H]12
5. O=c1ccc(-c2cccs2)nn1CN1CCN(C2CCS(=O)(=O)C2)CC1 (configuration not stated)

### Response
41.2
45.8
69.7
36.8
-4.52

Would you mind giving INHIBITION for every molecule in the list below?
1. O=C(NCC(O)(c1ccco1)C1CC1)c1c(F)cccc1Cl (configuration not stated)
2. CCC(C)NC(=O)c1nnn(-c2cccc3c2CCN(C)C3)c1C (configuration not stated)
3. Cc1ccc(CS(=O)(=O)N2Cc3c(CN(C)C)nn(C)c3C2)cc1
4. COCC(=O)N1CCOCC2(CCN(Cc3cccs3)C2)C1 (configuration not stated)
5. COCCNC(=O)NC1CCN(c2cnn(C)c2)C1 (configuration not stated)
6. COc1ccc(Cl)cc1CCNC(=O)NCc1cnn(C)c1C
7. O=C(CC1CN(Cc2ccccc2)CCO1)NC1CCSCC1 (configuration not stated)

### Response
1. 46.7
2. 51.7
3. 8.6
4. -13.2
5. 16
6. -9.35
7. 35.1

Dear colleague, could you please provide INHIBITION for the molecules listed below?
1. Cc1c(C(=O)NCC(C)C)nnn1-c1cccc2c1CCN(C)C2
2. Cc1c(C(=O)NCC(C)C)nnn1-c1cccc2c1CCN(C(C)C)C2
3. Cc1ccc(N2CCC(c3[nH]ncc3Cc3ccccc3)CC2)nn1
4. CN(C)CCN1C(=O)CCC12CCN(C(=O)c1cccnc1)CC2
5. C1CC(CN2CC[C@@H]3O[C@@H](c4nnc(C5CC5)o4)C[C@H]3C2)CCO1
6. Cn1ccc(CN2CCC(CN3CCOCC3)CC2)cc1=O
7. CC(C)(C)c1nnnn1CC(=O)N(CCC#N)c1ccccc1
8. CCC[C@H]1CN(Cc2cscn2)C[C@@H]1NC(=O)C1(COC)CCC1

### Response
[56.1, 38, 49.2, 13.2, 14.5, 31.3, 65.6, 48.5]

----------
# Test system: Plasmodium berghei
# experiment_notes: Screen against P. berghei liver stage (PbLuc), transformed with Luciferase, at 10uM
# Type: functional, HepG2
# test_parameters: tested at 10 uM
About 8,600 (12%) of roughly 69,000 compounds showed an effect of 50% or more. The list comes from a sample in which strong results are over-represented; it also holds close analogues and randomly drawn compounds.
For each record, write down the corresponding INHIBITION.
One number for each entry, in %.

Sample answers from the record:
| molecule | system_under_test | recorded_result |
| --- | --- | --- |
| Cn1cc(C2CC(=O)NC23CCN(CC2CC2)CC3)cn1 (configuration not stated) | Plasmodium berghei | 48.7 |
| CN(Cc1cnccn1)C(=O)c1ccnc(OC2CCC2)c1 | Plasmodium berghei | 36.3 |
| NCC(=O)N1CCCC1c1n[nH]cc1-c1ccccc1F (configuration not stated) | Plasmodium berghei | 10.9 |

Need INHIBITION for each of these molecules.
1. CC(C)c1cc(Br)ccc1NC(=O)NCC(O)CO (configuration not stated)
2. Cc1cccc(CN2CC[C@H]3[C@H]2CCN3C(=O)c2cnn(C)c2)n1
3. CCn1cnnc1C1CCN(C(=O)c2cccc(-n3cccc3)c2)CC1
4. COc1ccccc1CN(C)c1nccc(-c2cn(C)nc2C)n1

### Response
25.4
-0.554
20
82.3

Please supply INHIBITION for each of the following items, keeping them in order.
1. Cc1ccc(CCNC(=O)N2CCC(Cc3cnn(C)c3)C2)cn1 (configuration not stated)
2. Cc1cc(C)n(CC2CN(Cc3nc(-c4ccco4)no3)CCO2)n1 (configuration not stated)
3. CC(C)COCC1CN(Cc2ccsc2)Cc2ncn(C)c21 (configuration not stated)

### Response
1: -3.58; 2: 36.4; 3: 16.4

The following molecules each have a reported value; give each one's INHIBITION.
1. COCc1noc(CN2C(=O)OC[C@@H]2C(C)C)n1
2. CC(C)n1cc(CN2CCCN(C(=O)c3cc(Cl)c[nH]3)CC2)cn1
3. CN(Cc1nnc(C2CC2)n1C)C(=O)c1ccnc(OC2CCC2)c1
4. CCOc1cc(C)nc(N2CCN(C(=O)c3cn[nH]c3CC)CC2)n1
5. c1cnc(N2CCC3(CCN(CC4CCOCC4)CC3)C2)nc1
6. CC(C)n1cc(CN2CCCN(C(=O)c3ccco3)CC2)cn1
7. CCc1noc(CN(C)C(=O)c2ccnc(OC3CCC3)c2)n1

### Response
1: 14.6; 2: 54.9; 3: -13.4; 4: 44.1; 5: 5.67; 6: 25.1; 7: 55.4

Batch request: INHIBITION for each of the following molecules.
1. Cc1nn(C)cc1-c1ccnc(N(C)Cc2ccon2)n1
2. COc1ccc(CNCc2ccnc(N3CCOCC3)c2)c(OC)c1
3. CCC(=O)NC(Cc1cc(N(C)C)nc(C2CC2)n1)c1ccccc1 (configuration not stated)
4. CCCC1CN(CCOc2ccccc2)C(=O)c2cccnc2O1 (configuration not stated)

### Response
[49.6, 29.6, 33.8, 44.2]

Reference for the values: ChEMBL document CHEMBL4513216
